assay_text: Pharmacokinetic study in mice
Assay type: in vivo, BALB/c mice
conditions: BALB/c, mouse, in vivo; Mice, Iv. 1.0 mg/kg; read-out: AUC0-last
Method: The BALB/c mice, rats, and beagle dogs were used in the PK study and fasted overnight before dosing. Animal doses were administered in two ways. […] Plasma samples were collected from three animals at each time point. Plasma concentrations were determined by liquid chromatography-tandem mass spectrometry (LC-MS/MS). The bioanalytical method by LC-MS/MS for pharmacokinetic (PK) studies in animal and toxicokinetic (TK) in tox studies have been validated. […]
recorded_endpoint: AUC(0-t) (ng·h/mL)
Report as a plain number; the unit ng·h/mL is understood.

Ask | Complete the entry with AUC(0-t) for COc1nc2ccc(Br)cc2cc1[C@@H](c1ccccc1)[C@@](O)(CCN(C)C)c1cccc2ccccc12 [BDQ, bedaquiline]
Reply | 2100

Origin of values: paper PMC8849072
